Origin of the recorded values: the Human Domainome abundance scans (Beltran et al. 2025)

Reported abundance fitness by item:
B1: POU domain, class 3, transcription factor 3, residues 408 to 463; numbered along this chain, P20264 (parent)
chain: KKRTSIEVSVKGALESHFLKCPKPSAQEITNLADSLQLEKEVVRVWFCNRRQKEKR

# Variants of: B1
# experiment summary: abundance fitness (aPCA) (normalised: wild type 0, dead -1); higher = more abundant; growth selection in yeast, the domain comes from the species named
# measurement parameters: Homo sapiens
Please give only the number in your answer, with no unit.

Solved entries:
K53Q | -0.041
K23D | 0.114
K1C | -0.104
Q27H | -0.123
L38F | -0.91
N49K | -0.276
V43T | -0.595
E41M | -0.534

Ask | // abundance fitness lookup, key: `S5H`
Reply | 0.175

Ask | // abundance fitness lookup, key: `S16N`
Reply | -0.044

Ask | // abundance fitness lookup, key: `E15N`
Reply | -1.02

Ask | // abundance fitness lookup, key: `K40C`
Reply | -0.038

Ask | // abundance fitness lookup, key: `S5K`
Reply | 0.097
